// provenance: patent US11214803B2

Form field: Spleen weight (one value per entry).
assay: Tolerability in Balb/c mice, body and organ weights (Example 10); type: in vivo; conditions: 50 mg/kg subcutaneously twice a week for four weeks, end of study
Strand notation (5' to 3'): a small letter for the sugar, then the base; units joined by * are phosphorothioate-linked, units joined directly phosphodiester-linked; [ ] holds rarer units or linkages, { } end groups; capitals alone tell only the bases. k = constrained ethyl (cEt); [5mC] = 5-methylcytosine; d = 2'-deoxy (DNA)
Answer format: numeric, g implied, no suffix.

Solved cases below.
SUBSTANCE	MEASURE_UNIT	EXPERIMENTAL_VALUE
715484 (kT*kA*k[5mC]*dT*d[5mC]*dT*dT*dT*dG*dG*dA*dA*dA*k[5mC]*k[5mC]*kA; antisense) [compound 715484]	g	0.13
715480 (kG*kG*kA*dA*dA*d[5mC]*d[5mC]*dA*dT*dT*dA*dT*dT*kA*k[5mC]*kT; antisense) [compound 715480]	g	0.12
715487 (kA*kT*kT*dA*d[5mC]*dT*dT*d[5mC]*dA*dT*dA*dG*d[5mC]*kT*kT*kA) [compound 715487]	g	0.14

Request: Input 715582 (kG*kT*k[5mC]*dA*dA*dG*d[5mC]*d[5mC]*dT*dG*dT*d[5mC]*dT*kG*kG*kA; antisense) [compound 715582] , output reported Spleen weight.
Response: 0.16

Request: Input 715491 (kA*kA*k[5mC]*d[5mC]*dA*dA*d[5mC]*dT*dA*dT*dT*dA*d[5mC]*kT*kT*k[5mC]) [compound 715491] , output reported Spleen weight.
Response: 0.12

###

system: Yap1 mRNA; assay: Antisense inhibition of human Yap1 in A-431 cells by cEt gapmers, single dose (Example 3, RTS36584); type: cell-based; conditions: Table 13; A-431 cells, 5,000 cells per well, free uptake, 2,000 nM modified oligonucleotide, approx. 48 hours; RTS36584; normalized to RIBOGREEN; Yap1 mRNA relative to untreated control cells
Strand notation (5' to 3'): a small letter for the sugar, then the base; units joined by * are phosphorothioate-linked, units joined directly phosphodiester-linked; [ ] holds rarer units or linkages, { } end groups; capitals alone tell only the bases. k = constrained ethyl (cEt); [5mC] = 5-methylcytosine; d = 2'-deoxy (DNA)
Class field: derived from YAP1 (% UTC); ranges group A: < 20 % UTC; group B: ≥ 20 % UTC and < 60 % UTC; group C: ≥ 60 % UTC

Completed entries (count: 4):
SUBSTANCE	CATEGORY_LABEL
958685 (antisense kA*kG*k[5mC]*dT*dA*dT*dG*dG*dA*dA*dA*dG*dT*kG*kT*k[5mC]) [Compound 958685]	group B
958540 (kA*kT*kT*d[5mC]*dT*dA*dT*d[5mC]*d[5mC]*dA*dG*dG*dG*kT*k[5mC]*kA; antisense) [Compound 958540]	group A
958475 (antisense k[5mC]*k[5mC]*kG*dG*dT*dG*d[5mC]*dA*dT*dG*dT*dG*dT*k[5mC]*kT*k[5mC]) [Compound 958475]	group B
958465 (antisense kG*kG*k[5mC]*dT*dT*d[5mC]*dA*dA*dG*dG*dT*dA*dG*kT*k[5mC]*kT) [Compound 958465]	group C

Request: Input 958715 (antisense kG*kT*kA*dA*dT*dA*dG*dG*dA*dG*dG*dT*dA*kA*kG*kA) [Compound 958715] ; output its category
Response: group B

Request: Input 958700 (antisense k[5mC]*kT*kA*dA*dT*dA*dT*dA*dG*dA*d[5mC]*dT*dA*k[5mC]*kT*k[5mC]) [Compound 958700] ; output its category
Response: group B

Request: Input 958470 (antisense kT*kA*kG*dA*dT*d[5mC]*d[5mC]*dT*dT*d[5mC]*dA*d[5mC]*dA*kG*kA*kT) [Compound 958470] ; output its category
Response: group A

Request: Input 958620 (antisense kA*kA*kG*d[5mC]*d[5mC]*dT*dT*dG*dG*dG*dT*d[5mC]*dT*kA*kG*k[5mC]) [Compound 958620] ; output its category
Response: group B
